B1: FAM46C (parent)
chain: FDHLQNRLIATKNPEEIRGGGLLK

variants of: B1; experiment: protein stability index of a GFP-peptide fusion (GPS, HEK-293T) (PSI 1-6); higher = more stable; conditions: c terminus: a fixed tail appended;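 further: lentivirally expressed fusions sorted by FACS into six bins by GFP to DsRed ratio, PSI derived from sequencing read proportions per bin multiplied by bin number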
Consider the following variants; for each one, report its protein stability index.
Give bare numbers.

// solved cases for protein stability index follow
# variant.annotation, protein stability index
measured = [
    ("N6G", 3.03),
    ("R18K", 4.05),
    ("P14T", 3.84),
    ("F1P", 4.59),
    ("D2S", 4.75),
]

Return reported protein stability index values for all items listed beneath this line.
1. R7C
2. A10L
3. R18C
4. I9G
5. L4Q
6. F1N
7. L23H
8. K24I

A)
1: 3.37; 2: 2.57; 3: 4.44; 4: 4.3; 5: 4.47; 6: 4.4; 7: 4.73; 8: 1.96

Return reported protein stability index values for all items listed beneath this line.
1. G20F
2. L8R

A)
1: 2.77; 2: 3.72
